Where do the numbers come from? From patent US20250163054A1.

Biological target: human TLR8 (Homo sapiens, UniProt Q9NR97)
Sequence (Q9NR97 27-1041): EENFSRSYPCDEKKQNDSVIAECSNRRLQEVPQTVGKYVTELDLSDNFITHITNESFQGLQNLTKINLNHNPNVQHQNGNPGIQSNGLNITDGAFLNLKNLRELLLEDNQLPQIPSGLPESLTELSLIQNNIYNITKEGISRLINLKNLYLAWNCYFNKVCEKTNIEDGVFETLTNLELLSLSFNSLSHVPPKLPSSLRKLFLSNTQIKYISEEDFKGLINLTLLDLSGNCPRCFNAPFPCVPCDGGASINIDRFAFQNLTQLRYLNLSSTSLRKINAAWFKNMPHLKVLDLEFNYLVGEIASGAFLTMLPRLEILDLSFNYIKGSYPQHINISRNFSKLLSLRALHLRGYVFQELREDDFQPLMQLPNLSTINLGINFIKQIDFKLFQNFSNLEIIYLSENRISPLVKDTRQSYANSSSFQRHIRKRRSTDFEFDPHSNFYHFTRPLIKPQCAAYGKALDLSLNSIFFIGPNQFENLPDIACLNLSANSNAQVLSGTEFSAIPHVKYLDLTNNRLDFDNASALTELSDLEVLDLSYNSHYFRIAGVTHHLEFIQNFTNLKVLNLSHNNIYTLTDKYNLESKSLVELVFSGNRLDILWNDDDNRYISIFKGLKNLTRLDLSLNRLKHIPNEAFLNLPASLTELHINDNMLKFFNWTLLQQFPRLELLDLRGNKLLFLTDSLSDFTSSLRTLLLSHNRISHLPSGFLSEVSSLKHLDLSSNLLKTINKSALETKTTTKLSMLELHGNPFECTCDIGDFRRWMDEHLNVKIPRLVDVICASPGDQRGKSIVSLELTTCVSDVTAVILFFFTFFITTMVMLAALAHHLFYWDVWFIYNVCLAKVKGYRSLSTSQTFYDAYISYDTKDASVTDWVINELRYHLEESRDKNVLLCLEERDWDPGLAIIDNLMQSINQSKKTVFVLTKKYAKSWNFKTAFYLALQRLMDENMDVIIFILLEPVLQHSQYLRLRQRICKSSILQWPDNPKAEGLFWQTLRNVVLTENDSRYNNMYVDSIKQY
Experiment: TLR7/8/9 Inhibition Reporter Assays (TLR8)
Details: HEK-Blue cells overexpressing human TLR8, SEAP reporter, stimulated with TLR8 ligand R848
pIC50: −log10 of the molar value.
attribute-measured: pIC50

The cases that follow already have their pIC50 on record.
INSERT INTO results (structure, attribute_measured, experimental_result) VALUES
  ('COc1cc(-c2nc3c(C)nc(-c4ccc(N5CCN(C(C)C)CC5)cc4)cc3n2C)cn2ncnc12', 'pIC50', 5.04),
  ('Cc1nc(-c2ccc(N3CCN(CC4CC4)CC3)cc2)cc2c1nc(-c1ccc(S(C)(=O)=O)cc1)n2C', 'pIC50', 4.92),
  ('COc1ccc(-c2nc3c(C)nc(-c4ccc(N5CCN(CC6CC6)CC5)cc4)cc3n2C)cc1OC', 'pIC50', 4.74),
  ('COc1ccc(-c2nc3c(C)nc(-c4ccc(N5CC6(CN(CC(C)C)C6)C5)cc4)cc3n2C)cc1OC', 'pIC50', 4.77);

(A) Cc1nc(-c2ccc(N3CCC(N(C)C)CC3)cc2)cc2c1nc(-c1ccc(S(C)(=O)=O)cc1)n2C
(B) CS(=O)(=O)c1ccc(-c2nc3cnc(-c4ccc(N5CCN(CCCN6CCOCC6)CC5)cc4)cc3n2C2CC2)cc1
(C) COCCN1CC2(CCN(c3ccc(-c4cc5c(cn4)nc(-c4ccc(S(C)(=O)=O)cc4)n5C)cc3)CC2)C1
(D) Cc1nc(-c2ccc(N3C[C@@H]4CN(C5CCC5)C[C@@H]4C3)cc2)cc2c1nc(-c1ccc(S(C)(=O)=O)cc1)n2C
(E) COc1ccc(-c2nc3c(C)nc(-c4ccc(N5C[C@@H]6CN(C(C)C)C[C@@H]6C5)cc4)cc3n2C)cc1OC
Sort ascending by pIC50. Order the labels as requested and list them. E, A, D, C, B
